- Test system: Escherichia coli
- assay-info: Antibacterial activity against Escherichia coli MTCC 443 assessed as growth inhibition after overnight incubation by NCCLS broth microdilution method
- Type: functional
Mark each entry Yes if its MIC sits below 100 µg/mL, and No for all others.

molecule="CCOC(=O)C1=C(N)N(Nc2ccc(F)cc2)C2=C(C(=O)CC(C)(C)C2)C1c1cc2cc(OC)ccc2nc1Cl (stereo unspecified)" class_assignment=No
molecule="CCOC(=O)C1=C(N)N(Nc2ccc(OC)cc2)C2=C(C(=O)CC(C)(C)C2)C1c1cc2cc(OC)ccc2nc1Cl (stereo unspecified)" class_assignment=No
molecule="CCOC(=O)C1=C(N)N(Nc2ccc(Cl)cc2)C2=C(C(=O)CC(C)(C)C2)C1c1cc2ccccc2nc1Cl (stereo unspecified)" class_assignment=No
molecule="CCOC(=O)C1=C(N)N(Nc2ccc(Cl)cc2)C2=C(C(=O)CC(C)(C)C2)C1c1cc2cc(Cl)ccc2nc1Cl (stereo unspecified)" class_assignment=No
molecule="CCOC(=O)C1=C(N)N(Nc2ccc(Cl)cc2)C2=C(C(=O)CC(C)(C)C2)C1c1cc2cc(C)ccc2nc1Cl (stereo unspecified)" class_assignment=Yes
molecule="CCOC(=O)C1=C(N)N(Nc2ccc(C)cc2)C2=C(C(=O)CC(C)(C)C2)C1c1cc2cc(C)ccc2nc1Cl (stereo unspecified)" class_assignment=No
molecule="CCOC(=O)C1=C(N)N(Nc2ccc(OC)cc2)C2=C(C(=O)CC(C)(C)C2)C1c1cc2cc(Cl)ccc2nc1Cl (stereo unspecified)" class_assignment=No
molecule=CCn1cc(C(=O)O)c(=O)c2cc(F)c(N3CCNCC3)cc21 class_assignment=Yes
molecule=O=C(O)c1cn(C2CC2)c2cc(N3CCNCC3)c(F)cc2c1=O class_assignment=Yes
molecule="CCOC(=O)C1=C(N)N(Nc2ccc(Br)cc2)C2=C(C(=O)CC(C)(C)C2)C1c1cc2cc(OC)ccc2nc1Cl (stereo unspecified)" class_assignment=No
molecule=O=C(N[C@H](CO)[C@H](O)c1ccc([N+](=O)[O-])cc1)C(Cl)Cl class_assignment=Yes
molecule="CCOC(=O)C1=C(N)N(Nc2ccc(F)cc2)C2=C(C(=O)CC(C)(C)C2)C1c1cc2cc(Cl)ccc2nc1Cl (stereo unspecified)" class_assignment=No

###

- Test system: Salmonella typhi
- assay-info: Antibacterial activity against Salmonella enterica subsp. enterica serovar Typhi MTCC 98 assessed as growth inhibition after overnight incubation by NCCLS broth microdilution method
- Assay type: functional
Reported MIC values are given for each entry in this list.
recorded-metric: MIC (µg/mL)

molecule="CCOC(=O)C1=C(N)N(Nc2ccc(C)cc2)C2=C(C(=O)CC(C)(C)C2)C1c1cc2cc(Cl)ccc2nc1Cl (stereo unspecified)" tested_system="Salmonella typhi" recorded_metric=MIC experimental_value=500
molecule="CCOC(=O)C1=C(N)N(Nc2ccc(Br)cc2)C2=C(C(=O)CC(C)(C)C2)C1c1cc2cc(C)ccc2nc1Cl (stereo unspecified)" tested_system="Salmonella typhi" recorded_metric=MIC experimental_value=500
molecule="CCOC(=O)C1=C(N)N(Nc2ccc(Br)cc2)C2=C(C(=O)CC(C)(C)C2)C1c1cc2cc(Cl)ccc2nc1Cl (stereo unspecified)" tested_system="Salmonella typhi" recorded_metric=MIC experimental_value=100
molecule="CCOC(=O)C1=C(N)N(Nc2ccc(C)cc2)C2=C(C(=O)CC(C)(C)C2)C1c1cc2ccccc2nc1Cl (stereo unspecified)" tested_system="Salmonella typhi" recorded_metric=MIC experimental_value=250
molecule="CCOC(=O)C1=C(N)N(Nc2ccc(Cl)cc2)C2=C(C(=O)CC(C)(C)C2)C1c1cc2cc(C)ccc2nc1Cl (stereo unspecified)" tested_system="Salmonella typhi" recorded_metric=MIC experimental_value=200
molecule=O=C(N[C@H](CO)[C@H](O)c1ccc([N+](=O)[O-])cc1)C(Cl)Cl tested_system="Salmonella typhi" recorded_metric=MIC experimental_value=50
molecule="CCOC(=O)C1=C(N)N(Nc2ccc(F)cc2)C2=C(C(=O)CC(C)(C)C2)C1c1cc2ccccc2nc1Cl (stereo unspecified)" tested_system="Salmonella typhi" recorded_metric=MIC experimental_value=100
molecule=CC1(C)S[C@@H]2[C@H](NC(=O)[C@H](N)c3ccccc3)C(=O)N2[C@H]1C(=O)O tested_system="Salmonella typhi" recorded_metric=MIC experimental_value=100
molecule="CCOC(=O)C1=C(N)N(Nc2ccccc2)C2=C(C(=O)CC(C)(C)C2)C1c1cc2ccccc2nc1Cl (stereo unspecified)" tested_system="Salmonella typhi" recorded_metric=MIC experimental_value=200
molecule=CCn1cc(C(=O)O)c(=O)c2cc(F)c(N3CCNCC3)cc21 tested_system="Salmonella typhi" recorded_metric=MIC experimental_value=10
molecule="CCOC(=O)C1=C(N)N(Nc2ccc(Cl)cc2)C2=C(C(=O)CC(C)(C)C2)C1c1cc2ccccc2nc1Cl (stereo unspecified)" tested_system="Salmonella typhi" recorded_metric=MIC experimental_value=250
molecule="CCOC(=O)C1=C(N)N(Nc2ccc(OC)cc2)C2=C(C(=O)CC(C)(C)C2)C1c1cc2cc(OC)ccc2nc1Cl (stereo unspecified)" tested_system="Salmonella typhi" recorded_metric=MIC experimental_value=200
molecule=O=C(O)c1cn(C2CC2)c2cc(N3CCNCC3)c(F)cc2c1=O tested_system="Salmonella typhi" recorded_metric=MIC experimental_value=25
molecule="CCOC(=O)C1=C(N)N(Nc2ccccc2)C2=C(C(=O)CC(C)(C)C2)C1c1cc2cc(Cl)ccc2nc1Cl (stereo unspecified)" tested_system="Salmonella typhi" recorded_metric=MIC experimental_value=250
molecule="CCOC(=O)C1=C(N)N(Nc2ccc(C)cc2)C2=C(C(=O)CC(C)(C)C2)C1c1cc2cc(OC)ccc2nc1Cl (stereo unspecified)" tested_system="Salmonella typhi" recorded_metric=MIC experimental_value=62.5
molecule="CCOC(=O)C1=C(N)N(Nc2ccc(OC)cc2)C2=C(C(=O)CC(C)(C)C2)C1c1cc2ccccc2nc1Cl (stereo unspecified)" tested_system="Salmonella typhi" recorded_metric=MIC experimental_value=200
